B1: INTS3 (parent)
chain: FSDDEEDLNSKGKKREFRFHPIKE

- Variants of: B1
- Assay name: protein stability index of a GFP-peptide fusion (GPS, HEK-293T) (PSI 1-6); higher = more stable;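 also: lentivirally expressed fusions sorted by FACS into six bins by GFP to DsRed ratio, PSI derived from sequencing read proportions per bin multiplied by bin number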
- Run parameters: c terminus: a fixed tail appended
In this section we review reported protein stability index values for a set of variants.
Endpoint name: protein stability index

{"columns": ["Variant label", "Measured number"],
 "data": [
  ["I22Q", 3.32],
  ["R15E", 4.63],
  ["K13Q", 3.29],
  ["D4T", 2.56],
  ["P21R", 4.19],
  ["F17H", 5.01],
  ["F19Q", 5.14],
  ["R18E", 5.1],
  ["L8N", 2.99],
  ["D4Q", 2.9],
  ["E24C", 2.18],
  ["E24V", 2.07]
]}
